Biological target: CDK4/cyclin D1 (Homo sapiens)
Sequence (P11802 whole entry, species assumed): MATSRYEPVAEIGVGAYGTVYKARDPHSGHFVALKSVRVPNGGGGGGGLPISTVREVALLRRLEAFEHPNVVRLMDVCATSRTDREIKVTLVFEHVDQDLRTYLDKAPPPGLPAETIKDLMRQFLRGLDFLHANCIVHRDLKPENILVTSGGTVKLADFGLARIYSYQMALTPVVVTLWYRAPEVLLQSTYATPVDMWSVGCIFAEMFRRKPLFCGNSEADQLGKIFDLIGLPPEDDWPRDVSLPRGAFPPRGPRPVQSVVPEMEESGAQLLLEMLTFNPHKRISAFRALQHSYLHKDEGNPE
Sequence (P24385 whole entry partner, species assumed): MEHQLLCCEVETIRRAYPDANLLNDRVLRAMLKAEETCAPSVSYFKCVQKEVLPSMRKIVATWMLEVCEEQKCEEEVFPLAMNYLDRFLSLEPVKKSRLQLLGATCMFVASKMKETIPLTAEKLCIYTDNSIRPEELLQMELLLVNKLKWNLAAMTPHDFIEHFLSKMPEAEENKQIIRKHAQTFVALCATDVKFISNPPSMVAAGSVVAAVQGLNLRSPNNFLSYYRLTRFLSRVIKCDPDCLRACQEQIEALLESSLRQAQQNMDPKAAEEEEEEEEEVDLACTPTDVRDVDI
Test: Kinase assay CDK4/cyclin D1
Conditions: Ki calculated (Cheng-Prusoff) from experimentally determined IC50 and Km,ATP; read-out: Kinase Inhibition Ki CDK4 - cyclin D1
One threshold, 1000 nM, splits the recorded Ki values: lower ones are Satisfied, equal or higher ones are Not satisfied.

| structureSmiles | discreteLabel |
| --- | --- |
| Cc1c(-c2ccnc(Nc3ccc(N4CCNCC4)c(Cl)c3)n2)sc(=O)n1C | Satisfied |
| CCNS(=O)(=O)c1cccc(Nc2nccc(-c3sc(=O)n(C)c3C)n2)c1 | Satisfied |
| Cc1c(-c2ccnc(Nc3ccc(N4CCNCC4)cc3)n2)sc(=O)n1C | Satisfied |
| COCCNS(=O)(=O)c1cccc(Nc2nccc(-c3sc(=O)n(C)c3C)n2)c1 | Not satisfied |
| Cc1c(-c2ccnc(Nc3cccc(O)c3)n2)sc(=O)n1C | Satisfied |
| CC(=O)NCc1ccc(Nc2nccc(-c3sc(=O)n(C)c3C)n2)cc1 | Satisfied |
| Cc1c(-c2ccnc(Nc3ccc(N(C)C)cc3)n2)sc(=O)n1C | Satisfied |
| Cc1c(-c2ccnc(Nc3cccc([N+](=O)[O-])c3)n2)sc(=O)n1CCC(C)C | Not satisfied |
| Cc1ccc(Nc2nccc(-c3sc(=O)n(C)c3C)n2)cc1N | Satisfied |
| Cc1cc(Nc2nccc(-c3sc(=O)n(C)c3C)n2)ccc1Cl | Not satisfied |
| Cc1c(-c2ccnc(NCc3cccnc3)n2)sc(=O)n1C | Not satisfied |
| Cc1c(-c2ccnc(Nc3cccc(C#N)c3)n2)sc(=O)n1C | Satisfied |
| CC(=O)NCc1cccc(Nc2nccc(-c3sc(=O)n(C)c3C)n2)c1 | Satisfied |
| CCn1c(C)c(-c2ccnc(Nc3ccc(N4CCOCC4)cc3)n2)sc1=O | Not satisfied |
| CCn1c(C)c(-c2ccnc(Nc3ccc(OC)nc3)n2)sc1=O | Satisfied |
| CC(=O)N1CCN(c2ccc(Nc3nccc(-c4sc(=O)n(C)c4C)n3)cc2)CC1 | Satisfied |
